System: multidrug-resistant leukemia CEM/ADR5000 cells
Assay: Resazurin reduction assay, cytotoxicity on CEM/ADR5000
Format: cell-based
Conditions: Homo sapiens; CEM/ADR5000; 72 h; mean ± SD; read-out: IC50 values of compounds / doxorubicin
pIC50: −log10 of the molar value.
# Lookup of reported pIC50 keyed by entry
experimental_endpoint: pIC50

line_notation | experimental_endpoint | result
CC(=O)O[C@H]1CC[C@]2(C)[C@H]3C(=O)C=C4[C@@H]5[C@@H](C)[C@H](C)CC[C@]5(C)CC[C@@]4(C)[C@]3(C)CC[C@H]2C1(C)C | pIC50 | < 4.08
COC(=O)CC(O)(CC(=O)OC)C(=O)OC | pIC50 | < 3.77
Oc1ccc(/C=C/c2cc(O)cc(O)c2)cc1 | pIC50 | 4.24
O=C(O)/C=C/c1ccc(O)cc1 | pIC50 | < 3.61
